Test system: T. cruzi (Tulahuen strain)
Test: microbe, parasite or virus in culture
Type: cell-based, Trypanosoma cruzi
Settings: Trypanosoma cruzi, TULAHUEN, Fibroblast, 120 h, 10 uM, Table S2; read-out: T. cruzi % growth @ 10 uM (Amastigotes)
In this scheme, each record receives a class according to its activity at 10 µM; the ranges are b0 (below 4%), b1 (4% to below 10%), b2 (10% or more)

Recorded results for 5 molecules are shown here.
{"molecule": "CC(=O)[C@H]1CC[C@H]2[C@@H]3CC[C@H]4C[C@@H](O)CC[C@]4(C)[C@H]3CC[C@]12C", "assignedClass": "b0"}
{"molecule": "CN(C)CCCN1c2ccccc2Sc2ccccc21", "assignedClass": "b1"}
{"molecule": "OCCN1CCN(CCCN2c3ccccc3Sc3ccc(C(F)(F)F)cc32)CC1", "assignedClass": "b0"}
{"molecule": "Nc1nc(=S)c2[nH]cnc2[nH]1 [THIOGUANINE, 2-amino-6,7-dihydro-3H-purine-6-thione]", "assignedClass": "b2"}
{"molecule": "COC1CC(OC2C(C)C(=O)OC(C)C(C)C(O)C(C)C(=O)C3(CO3)CC(C)C(OC3OC(C)CC(N(C)C)C3O)C2C)OC(C)C1O (stereo not drawn) [OLEANDOMYCIN PHOSPHATE]", "assignedClass": "b2"}

Where would CN(C)CCCN1c2ccccc2Sc2ccc(Cl)cc21 land among the classes by reported activity at 10 µM?
b2

Determine which band this molecule sits in: COc1ccc2c(c1)OC[C@@H](Cc1ccc(OC)c(OC)c1)[C@@H]2O [3-DESHYDRO[…] ETHER]
b2

Just checking, what class would you give CC(=O)OC1CC2C(C)(C)C(=O)C3OC3C2(C)C2CCC3(C)C(c4ccoc4)OC(=O)C4OC43C12C (stereo not drawn) here?
b1

Hello team, could you let me know which band the following molecule falls into: O=C1C=C2C=CC3CC2(O1)C1CCCCN31 (stereo not drawn)
b0

Dear colleague, I would appreciate it if you could identify the bin for CC(=O)O[C@H]1CC[C@]2(C)C(C[C@H](OC(C)=O)[C@]3(C)C4=CC(=O)OC(c5ccoc5)[C@@]4(C)CCC23)C1(C)C (stereo partly drawn) [3beta,7beta-[…]] and reply at your convenience.
b0

Please classify: CNc1ccc(C(=O)CC(O)CCC(C)C2OC(=O)CC(O)CC(=O)CC(O)CC(O)CC(O)CC(O)CC3(O)CC(O)C(C(=O)OC)C(CC(O[C@@H]4O[C@H](C)[C@@H](O)[C@H](N)[C@@H]4O)/C=C/C=C/C=C/C=C\C=C/C=C/C=C/C2C)O3)cc1 (stereo partly drawn)
b0

Just checking, what class would you give CC1(C)C(=O)C=CC2(C)C1CC(O)C1(C)C2CCC2(C)C(c3ccoc3)OC(=O)C3OC321 (stereo not drawn) here?
b1

Which bin should I file COc1cc2ccc(=O)oc2c(O)c1O [FRAXETIN, 7,8-dihydroxy-6-methoxy-2H-chromen-2-one] under?
b1

In plain terms, what class is NCC(=O)c1ccccc1 ?
b1

For COc1ccc(-c2cc(=O)c3c(O)cc(O)cc3o2)cc1 , which activity at 10 µM bin applies?
b2

Given C=CC(C)(O)CCC1C(=C)CC(O)C2C(C)(C)CCCC12C (stereo not drawn) , name the class its activity at 10 µM places it in.
b1

Hi there! Could you help me figure out the category for C=CC(C)(O)CCC1C(=C)CCC2C(C)(CO)CCCC12C (stereo not drawn) [EPI(13)TORULOSOL] please?
b2

Input O=C(O)CC[N+](=O)[O-] ; output its category
b2

Class for CC(=O)OC[C@H]1O[C@@H](Oc2cc(OC(C)=O)c3c(=O)cc(-c4ccc(OC(C)=O)cc4)oc3c2)[C@H](OC(C)=O)[C@@H](OC(C)=O)[C@@H]1OC(C)=O [COSMOSIIN HEXAACETATE] ?
b2
